Tested on: Enterococcus spp.
Assay: minimum inhibitory concentration (MIC)
Settings: isolate (source animal id): 123
assay-metric: minimum inhibitory concentration

- CCCN1C[C@H](C)[C@@H](O)[C@](C)(O)[C@@H](CC)OC(=O)[C@H](C)[C@@H](O[C@H]2C[C@@](C)(OC)[C@@H](O)[C@H](C)O2)[C@H](C)[C@@H](O[C@@H]2O[C@H](C)C[C@H](N(C)C)[C@H]2O)[C@](C)(O)C[C@H]1C [Gamithromycin]: ≤ 1 µg/mL
- COc1cc(Cc2cnc(N)nc2N)cc(OC)c1OC.Cc1cc(NS(=O)(=O)c2ccc(N)cc2)no1 [trimethoprim-sulfamethoxazole]: ≤ 2 µg/mL
- CN(C)[C@@H]1C(O)=C(C(N)=O)C(=O)[C@@]2(O)C(O)=C3C(=O)c4c(O)cccc4[C@@](C)(O)[C@H]3C[C@@H]12 [Tetracycline]: > 8 µg/mL

###

Test system: Pasteurella multocida
Experiment: minimum inhibitory concentration (MIC)
Conditions: isolate (source animal id): 177
assay-metric: minimum inhibitory concentration

- CC[C@H]1OC(=O)C[C@@H](O)[C@H](C)[C@@H](O[C@@H]2O[C@H](C)[C@@H](O)[C@H](N(C)C)[C@H]2O)[C@@H](CCN2C[C@H](C)C[C@H](C)C2)C[C@@H](C)C(=O)/C=C/C(C)=C/[C@@H]1CO[C@@H]1O[C@H](C)[C@@H](O)[C@@H](OC)[C@H]1OC: 8 µg/mL
- CCN1CCN(c2cc3c(cc2F)c(=O)c(C(=O)O)cn3C2CC2)CC1: ≤ 0.12 µg/mL
- CCCN1C[C@H](C)[C@@H](O)[C@](C)(O)[C@@H](CC)OC(=O)[C@H](C)[C@@H](O[C@H]2C[C@@](C)(OC)[C@@H](O)[C@H](C)O2)[C@H](C)[C@@H](O[C@@H]2O[C@H](C)C[C@H](N(C)C)[C@H]2O)[C@](C)(O)C[C@H]1C: ≤ 1 µg/mL

###

Test system: Histophilus somni
Test: minimum inhibitory concentration (MIC)
Conditions: isolate (source animal id): 280
assay-metric: minimum inhibitory concentration

- CN(C)[C@@H]1C(O)=C(C(N)=O)C(=O)[C@@]2(O)C(O)=C3C(=O)c4c(O)cccc4[C@@](C)(O)[C@H]3C[C@@H]12 [Tetracycline]: > 8 µg/mL
- CCN1CCN(c2cc3c(cc2F)c(=O)c(C(=O)O)cn3C2CC2)CC1 [Enrofloxacin]: ≤ 0.12 µg/mL
- CNC(C)C1CCC(N)C(OC2C(N)CC(N)C(OC3OCC(C)(O)C(NC)C3O)C2O)O1 (centres undefined) [Gentamicin]: > 16 µg/mL
- COc1cc(Cc2cnc(N)nc2N)cc(OC)c1OC.Cc1cc(NS(=O)(=O)c2ccc(N)cc2)no1 [trimethoprim-sulfamethoxazole]: > 2 µg/mL

###

Test system: Mannheimia haemolytica
Assay: minimum inhibitory concentration (MIC)
Settings: isolate (source animal id): 57
assay-metric: minimum inhibitory concentration

- CN[C@@H]1[C@H](O)[C@H](NC)[C@H]2O[C@@]3(O)C(=O)C[C@@H](C)O[C@H]3O[C@@H]2[C@H]1O [Spectinomycin]: > 64 µg/mL
- CC[C@H]1OC(=O)C[C@@H](O)[C@H](C)[C@@H](O[C@@H]2O[C@H](C)[C@@H](O)[C@H](N(C)C)[C@H]2O)[C@@H](CCN2CCCCC2)C[C@@H](C)C(=O)/C=C/C(C)=C/[C@@H]1CN1CCCCC1 [Tildipirosin]: > 16 µg/mL
- CC1(C)S[C@@H]2[C@H](NC(=O)Cc3ccccc3)C(=O)N2[C@H]1C(=O)O [Penicillin]: 0.25 µg/mL
- CN1C[C@@H]2C[C@H]1CN2c1cc2c(cc1F)c(=O)c(C(=O)O)cn2C1CC1 [Danofloxacin]: > 1 µg/mL

###

System: Enterococcus spp.
Assay: minimum inhibitory concentration (MIC)
Conditions: isolate (source animal id): 290
assay-metric: minimum inhibitory concentration

- COc1cc(Cc2cnc(N)nc2N)cc(OC)c1OC.Cc1cc(NS(=O)(=O)c2ccc(N)cc2)no1: ≤ 2 µg/mL
- COc1cc(NS(=O)(=O)c2ccc(N)cc2)nc(OC)n1: > 256 µg/mL
- CC1(C)S[C@@H]2[C@H](NC(=O)[C@H](N)c3ccccc3)C(=O)N2[C@H]1C(=O)O: ≤ 0.25 µg/mL

###

System: Escherichia coli
Assay: minimum inhibitory concentration (MIC)
Settings: isolate (source animal id): 127
assay-metric: minimum inhibitory concentration

* CNC(C)C1CCC(N)C(OC2C(N)CC(N)C(OC3OCC(C)(O)C(NC)C3O)C2O)O1 (centres undefined) [Gentamicin] | ≤ 1 µg/mL
* CCC[C@@H]1C[C@@H](C(=O)N[C@@H]([C@H]2O[C@H](SC)[C@H](O)[C@@H](O)[C@H]2O)[C@H](C)Cl)N(C)C1 [Clindamycin] | > 16 µg/mL
* CCN1CCN(c2cc3c(cc2F)c(=O)c(C(=O)O)cn3C2CC2)CC1 [Enrofloxacin] | ≤ 0.12 µg/mL
* CC[C@H]1OC(=O)C[C@@H](O)[C@H](C)[C@@H](O[C@@H]2O[C@H](C)[C@@H](O[C@H]3C[C@@](C)(O)[C@@H](O)[C@H](C)O3)[C@H](N(C)C)[C@H]2O)[C@@H](CC=O)C[C@@H](C)C(=O)/C=C/C(C)=C/[C@@H]1CO[C@@H]1O[C@H](C)[C@@H](O)[C@@H](OC)[C@H]1OC [Tylosin] | > 32 µg/mL

###

Test system: Enterococcus spp.
Assay: minimum inhibitory concentration (MIC)
Details: isolate (source animal id): 247
# minimum inhibitory concentration listing for each entry below
assay-metric: minimum inhibitory concentration

- CCCN1C[C@H](C)[C@@H](O)[C@](C)(O)[C@@H](CC)OC(=O)[C@H](C)[C@@H](O[C@H]2C[C@@](C)(OC)[C@@H](O)[C@H](C)O2)[C@H](C)[C@@H](O[C@@H]2O[C@H](C)C[C@H](N(C)C)[C@H]2O)[C@](C)(O)C[C@H]1C: > 8 µg/mL
- COc1cc(Cc2cnc(N)nc2N)cc(OC)c1OC.Cc1cc(NS(=O)(=O)c2ccc(N)cc2)no1: ≤ 2 µg/mL
- CCC[C@@H]1C[C@@H](C(=O)N[C@@H]([C@H]2O[C@H](SC)[C@H](O)[C@@H](O)[C@H]2O)[C@H](C)Cl)N(C)C1: > 16 µg/mL

###

System: Enterococcus spp.
Assay: minimum inhibitory concentration (MIC)
Conditions: isolate (source animal id): 182
assay-metric: minimum inhibitory concentration

- COc1cc(Cc2cnc(N)nc2N)cc(OC)c1OC.Cc1cc(NS(=O)(=O)c2ccc(N)cc2)no1 [trimethoprim-sulfamethoxazole]: ≤ 2 µg/mL
- COc1cc(NS(=O)(=O)c2ccc(N)cc2)nc(OC)n1 [sulfadimethoxine]: > 256 µg/mL
- CO/N=C(\C(=O)N[C@@H]1C(=O)N2C(C(=O)O)=C(CSC(=O)c3ccco3)CS[C@H]12)c1csc(N)n1 [Ceftiofur]: > 8 µg/mL

###

Test system: Mannheimia haemolytica
Assay: minimum inhibitory concentration (MIC)
Conditions: isolate (source animal id): 43
assay-metric: minimum inhibitory concentration

* CCCNC[C@]1(O)[C@H](C)O[C@@H](O[C@H]2[C@H](C)[C@@H](O[C@@H]3O[C@H](C)C[C@H](N(C)C)[C@H]3O)[C@](C)(O)C[C@@H](C)CN[C@H](C)[C@@H](O)[C@](C)(O)[C@@H](CC)OC(=O)[C@@H]2C)C[C@@]1(C)OC [Tulathromycin] | ≤ 8 µg/mL
* CO/N=C(\C(=O)N[C@@H]1C(=O)N2C(C(=O)O)=C(CSC(=O)c3ccco3)CS[C@H]12)c1csc(N)n1 [Ceftiofur] | ≤ 0.25 µg/mL
* NC[C@@H]1O[C@H](O[C@H]2[C@@H](O)[C@H](O[C@@H]3[C@@H](O)[C@H](N)C[C@H](N)[C@H]3O[C@H]3O[C@H](CN)[C@@H](O)[C@H](O)[C@H]3N)O[C@@H]2CO)[C@H](N)[C@@H](O)[C@@H]1O [Neomycin] | > 32 µg/mL

###

Listed here: items and their measured minimum inhibitory concentration.
System: Histophilus somni
Assay: minimum inhibitory concentration (MIC)
Details: isolate (source animal id): 132
assay-metric: minimum inhibitory concentration

• CO/N=C(\C(=O)N[C@@H]1C(=O)N2C(C(=O)O)=C(CSC(=O)c3ccco3)CS[C@H]12)c1csc(N)n1 [Ceftiofur] = ≤ 0.25 µg/mL
• COc1cc(Cc2cnc(N)nc2N)cc(OC)c1OC.Cc1cc(NS(=O)(=O)c2ccc(N)cc2)no1 [trimethoprim-sulfamethoxazole] = > 2 µg/mL
• CN(C)[C@@H]1C(O)=C(C(N)=O)C(=O)[C@@]2(O)C(O)=C3C(=O)c4c(O)cccc4[C@@](C)(O)[C@H]3C[C@@H]12 [Tetracycline] = > 8 µg/mL
